Here the recorded self-cleavage is given for each entry.
B1: Twister Ribozyme (parent)
chain: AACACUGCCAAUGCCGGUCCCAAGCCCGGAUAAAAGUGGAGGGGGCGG

# Variants of: B1
# testMethodNotes: self-cleavage, relative activity (ratio to wild type); higher = more cleavage; co-transcriptional
Write no unit; give the number alone.

U6A C15A: 0.358
G29U G39C: 0.116
C21G G41U: 0.32

Consider U31G G47A . Its measured self-cleavage is 0.782

Source listed as the RNAGym collection of RNA variant scans (doi:10.7554/elife.80360).
